So I've got a bunch of sequences here, and I need their phosphorylation enrichment values.
Tested on: AncSZ;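 note: frequency after pTyr selection over input frequency; kinase dosed for 20-30% of maximal phosphorylation in three min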
Assay: phosphorylation enrichment, bacterial display (enrichment ratio); higher = better substrate or ligand; peptides without Tyr show the background
Numbers only.

As a guide, the following entries are already answered.
> print(dat)
                        seq.text  numeric.result
1       GDYYRYLAEVA [YWHAG_Y133]            2.37
2    CSRCFYQLTKL [AR_Y858_R856C]           0.864
3      LGLTVYADCLA [ABCA4_Y2063]            1.14
4        SYPREYGSQEG [RBM10_Y48]           0.756
5  ETDPRYFDEEF [AKT1_Y437_T435P]            1.36

Hi team, please reply with phosphorylation enrichment for each item in this list.
1. APIEDYGGGGG [B4GALT6_Y382]
2. TYVVLYDAELT [ERCC4_Y581_R576T]
3. RLEGVYRNNID [PTEN_Y46]
4. DMLTLYVNTAA [SMCHD1_Y403_Q400L]
5. ASFSLYEPAKM [MKI67_Y340_P338S]
6. EQKRFYNAMKK [SCN5A_Y1495_K1493R_YF]
7. HESEIYGKVCY [CSRP3_Y57_C58G]
8. PTTKTYFPHFY [HBA1_Y43_D48Y]

OUTPUT:
1: 0.872; 2: 1.37; 3: 0.553; 4: 1.4; 5: 1.27; 6: 0.69; 7: 1.36; 8: 0.782

INPUT: Give phosphorylation enrichment for SGGGLYRDMGA [CBX8_Y321] tested on AncSZ.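 Note: 11-residue human phosphosite peptides and single-mutation variants displayed on the E. coli surface, counted by deep sequencing, each peptide's frequency after selection divided by its frequency in the unselected input library.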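 Note: frequency after pTyr selection over input frequency; kinase dosed for 20-30% of maximal phosphorylation in three min.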
OUTPUT: 0.564
